This listing pairs compounds with measured melting point.

Sample answers from the record:
[
  {
    "structure_as_smiles": "CC(C)[C@@H]1CC=C2[C@@]1(C)CC[C@@]1(C)[C@H]3C(=CC[C@]21C)[C@@]1(C)CC[C@H](O)C(C)(C)[C@@H]1C[C@@H]3O",
    "result": "247 to 248 °C"
  },
  {
    "structure_as_smiles": "CC(=O)OC[C@@]12CC[C@@]3(C)[C@H]4C(=CC[C@]3(C)[C@H]1[C@H](O)C[C@H]2C(C)C)[C@@]1(C)CCC(=O)C(C)(C)[C@@H]1C[C@@H]4O",
    "result": "98 to 100 °C"
  },
  {
    "structure_as_smiles": "CC(=O)O[C@@H]1C[C@@H](C(C)C)[C@]2(CO)CC[C@@]3(C)[C@H]4C(=CC[C@]3(C)[C@@H]12)[C@@]1(C)CC[C@H](O)C(C)(C)[C@@H]1C[C@@H]4O",
    "result": "170 to 173 °C"
  }
]

For the compound "COC(=O)CC[C@@H]1NC(=O)[C@@H](C)NC(=O)[C@@H]2Cc3ccc(O)c(c3)Oc3ccc(cc3)C[C@@H](C(=O)N2C)N(C)C(=O)[C@H](C)NC(=O)[C@H](Cc2ccc(OC)cc2)N(C)C1=O" , what melting point is on record?
253 to 254 °C

What value of melting point has been recorded for this entry: "CC(C)[C@@H]1C[C@@H](O)[C@H]2[C@@]1(CO)CC[C@@]1(C)[C@H]3C(=CC[C@]21C)[C@@]1(C)CC[C@H](O)C(C)(C)[C@@H]1C[C@@H]3O"
260 to 263 °C

# credit: paper PMC3698108
